Measurement Description: Solubility testing in organic solvents and water (visual, room temperature)
Type: physicochemical
Measurement Parameters: BuOH, 24 °C, organic solvent or mixture, thermodynamic from solid, BuOH, read-out: Solubility
Structures can show the parent of a compound that is named as a salt.
Readout Kind: Solubility

Given the entry CNC(=O)c1ncn2cc(-c3c(F)ccc(NS(=O)(=O)c4cc(Cl)cnc4OC)c3F)ncc12 [Potassium salt Form III] , report its measured Solubility.
< 100 µg/mL

---

Measurement Description: Pharmacokinetics of HC-7366 in male and female beagle dogs following IV and oral administration of HC-7366-K (plasma and urine, LC-MS/MS)
Assay type: in vivo, Beagle Dog
Measurement Parameters: dog; Male Beagle dogs, IV 0.5 mg/kg, t = 48 h, HC-7366 in plasma, mean n = 3
Readout Kind: AUC(0-t)
The answer should read as a number with its unit following.

Given the entry CNC(=O)c1ncn2cc(-c3c(F)ccc(NS(=O)(=O)c4cc(Cl)cnc4OC)c3F)ncc12 [HC-7366-K] , report its measured AUC(0-t).
77500 ng·h/mL
